Tested on: MEK1
Construct: gene MAP2K1
Conditions: concentration: 1 μM, replicates: in singlicate; n = 1;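 also: KINOMEscan kinase panel screen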
endpoint: %Inh (%)
# output: bare number, implied unit %

Request: Name the recorded %Inh for CCS(=O)c1ccc(-c2coc3ccc(-c4nnc(C)o4)cc23)cc1 (stereo not drawn) .
Result: 0

Request: Name the recorded %Inh for COc1ccc(-c2cc3c(C)nc(N)nc3n([C@H]3CC[C@H](O)CC3)c2=O)cn1 .
Result: 0

Request: Name the recorded %Inh for Cl.NS(=O)(=O)c1cccc(Nc2cc(-c3ccc(F)cc3)n[nH]2)c1 .
Result: 12

Request: Name the recorded %Inh for COc1cccc(-n2cnc3c(N)ncnc32)c1 .
Result: 12

Request: Name the recorded %Inh for Nc1n[nH]c2ncc(-c3ccccc3)cc12 .
Result: 0

Request: Name the recorded %Inh for COc1ccc(-c2coc3ccc(-c4nnc(SCc5cccc(C#N)c5)o4)cc23)cc1 .
Result: 4

###

Would you mind telling me the reported %Inh of each entry?
System: MYLK2
Conditions: concentration: 1 μM, replicates: in singlicate; n = 1
# output: bare number, implied unit %

Request: Name the recorded %Inh for CCC(=O)c1c(-c2ccccc2)c2cc(Cl)ccc2c(=O)n1Cc1cc(S(C)(=O)=O)n(CCC(C)(C)O)n1 .
Result: 5

Request: Name the recorded %Inh for CCc1nc(-c2cccc(C)c2)c(-c2ccncc2)s1 .
Result: 5

Request: Name the recorded %Inh for CCn1c(-c2nonc2N)nc2ccccc21 .
Result: 0

Request: Name the recorded %Inh for Cc1cc(Nc2nc(-c3cccc(C)n3)nc3ccccc23)ccn1 .
Result: 0

Request: Name the recorded %Inh for Cl.c1ccc(Cn2cnc3cc(Nc4ncnc5ccccc45)ccc32)cc1 .
Result: 0

Request: Name the recorded %Inh for CCc1ccc(-c2ccc3c(c2)-c2nn(C)cc2S(=O)(=O)N3C)cc1 .
Result: 0

Request: Name the recorded %Inh for Cc1nnc(-c2ccc3ncn(-c4ccc(S(C)=O)cc4)c3c2)o1 (centres unmarked) .
Result: 11

Request: Name the recorded %Inh for COc1cc(Nc2nccc(N3CCC(NC(=O)C(C)c4ccc(Cl)cc4)C3)n2)cc(OC)c1OC (centres unmarked) .
Result: 0

###

Would you mind telling me the reported %Inh of each entry?
Tested on: RIPK5
Conditions: concentration: 1 μM, replicates: in singlicate; n = 1
# output: bare number, implied unit %

Request: Notebook: pull reported %Inh for RIPK5, entry CCCC(=O)Nc1n[nH]c2ncc(-c3cccc4ccccc34)cc12 [SB-642057]
Result: 10

Request: Notebook: pull reported %Inh for RIPK5, entry O=C(Nc1n[nH]c2cc(-c3ccccc3F)ccc12)C1CC1 [SB-733371]
Result: 0

Request: Notebook: pull reported %Inh for RIPK5, entry CN1C(=O)C(Nc2cc(Cl)c(O)c(Cl)c2)=C(c2ccc(Cl)cc2)C1=O [SB-404321]
Result: 0

Request: Notebook: pull reported %Inh for RIPK5, entry O=C(NCc1cccs1)c1cc(C(=O)c2c(Cl)cccc2Cl)c[nH]1 [GW823670]
Result: 0

Request: Notebook: pull reported %Inh for RIPK5, entry CCC(=O)c1c(-c2ccccc2)c2cc(Cl)ccc2c(=O)n1Cc1cc(C(=O)NC2CC2)n(C)n1
Result: 18

Request: Notebook: pull reported %Inh for RIPK5, entry COc1cc(Nc2nccc(N3CCC(NC(=O)C(C)c4ccc(Cl)cc4)C3)n2)cc(OC)c1OC (stereo not shown) [GSK1379757]
Result: 16

Request: Notebook: pull reported %Inh for RIPK5, entry C[C@@H]1CC[C@H](C(=O)NC2CCCCC2)CN1c1cc(-c2ccc3c(N)n[nH]c3c2)nc(N)n1 [GSK2291363]
Result: 0

Request: Notebook: pull reported %Inh for RIPK5, entry Nc1n[nH]c2nnc(-c3ccccc3)c(-c3ccccc3)c12 [GW554060]
Result: 0

Request: Notebook: pull reported %Inh for RIPK5, entry COC(=O)c1c(-c2ccccc2)c2cc(C)ccc2c(=O)n1Cc1ccccc1
Result: 0

Request: Notebook: pull reported %Inh for RIPK5, entry Cc1cccc(-c2cc(-c3c[nH]nc3-c3ccccn3)ccn2)c1 [GW679395]
Result: 6

Request: Notebook: pull reported %Inh for RIPK5, entry OCCCNc1nccc(-c2c(-c3cccc(C(F)(F)F)c3)nn3cc(C(F)(F)F)ccc23)n1 [GW630813]
Result: 0

Request: Notebook: pull reported %Inh for RIPK5, entry Cc1nn2c(=O)cc(N3CCOCC3)nc2n1Cc1cccc(Cl)c1Cl [GSK2342769]
Result: 0

Request: Notebook: pull reported %Inh for RIPK5, entry Nc1ncnc2c1ncn2-c1ccc(Cl)cc1 [AH2635]
Result: 0

Request: Notebook: pull reported %Inh for RIPK5, entry COc1cc(OC)cc(-c2cc3cnc(N)nc3nc2NC(=O)NC(C)(C)C)c1
Result: 0

Request: Notebook: pull reported %Inh for RIPK5, entry COc1ccc(Nc2nccc(N3CCC(NS(=O)(=O)c4ccc(NC(C)=O)cc4)C3)n2)cc1 (stereo not shown) [GSK1379729]
Result: 0

Request: Notebook: pull reported %Inh for RIPK5, entry CCS(=O)c1ccc(-c2coc3ccc(-c4nnc(C)o4)cc23)cc1 (stereo not shown)
Result: 0

Request: Notebook: pull reported %Inh for RIPK5, entry Nc1n[nH]c2ncc(-c3ccccc3)cc12 [SB-517081]
Result: 5

Request: Notebook: pull reported %Inh for RIPK5, entry COc1ccc(-c2cc3c(C)nc(N)nc3n([C@H]3CC[C@H](O)CC3)c2=O)cn1
Result: 0

Request: Notebook: pull reported %Inh for RIPK5, entry COc1ccc(-c2cc3c(C)nc(N)nc3n([C@H]3CC[C@H](OCCO)CC3)c2=O)cn1
Result: 0

Request: Notebook: pull reported %Inh for RIPK5, entry CCC(=O)c1c(-c2ccccc2)c2cc(Cl)ccc2c(=O)n1Cc1cc(S(C)(=O)=O)n(CC(N)=O)n1
Result: 0

Request: Notebook: pull reported %Inh for RIPK5, entry Fc1cccc(CSc2nnc(-c3ccc4c(c3)CCO4)o2)c1
Result: 0

Request: Notebook: pull reported %Inh for RIPK5, entry CCCNC(=O)Nc1ccc(Oc2ncnc3ccn(C)c23)cc1
Result: 34

Request: Notebook: pull reported %Inh for RIPK5, entry Cl.NS(=O)(=O)c1cccc(Nc2cc(-c3ccc(F)cc3)n[nH]2)c1 [GW824645]
Result: 22

Request: Notebook: pull reported %Inh for RIPK5, entry CCn1c(-c2ccoc2)nc2cnccc21 [SB-733887]
Result: 0

Request: Notebook: pull reported %Inh for RIPK5, entry Cl.c1ccc(Cn2cnc3cc(Nc4ncnc5ccccc45)ccc32)cc1 [GW272142]
Result: 5

###

Would you mind telling me the reported %Inh of each entry?
Test system: PIM2
Details: concentration: 1 μM, replicates: in singlicate; n = 1
Please report the result as a number followed by the unit.

Request: Name the recorded %Inh for Cc1nnc(-c2ccc(C)c(-c3ccc(C(=O)O)cc3)c2)o1 .
Result: 0%

Request: Name the recorded %Inh for Nc1n[nH]c2nnc(-c3ccccc3)c(-c3ccccc3)c12 .
Result: 0%

Request: Name the recorded %Inh for Cn1c(=O)c(F)c(Nc2ccc(I)cc2F)c2c(=O)n(OC[C@H](O)CO)cnc21 .
Result: 13%

Request: Name the recorded %Inh for COc1cc(OC)cc(-c2cc3cnc(N)nc3nc2NC(=O)NC(C)(C)C)c1 .
Result: 0%

Request: Name the recorded %Inh for COC(=O)c1c(-c2ccccc2)c2cc(Br)ccc2c(=O)n1Cc1ccc(S(C)(=O)=O)cc1 .
Result: 14%

Request: Name the recorded %Inh for CN1C(=O)C(Nc2cc(Cl)c(O)c(Cl)c2)=C(c2ccc(Cl)cc2)C1=O .
Result: 0%

Request: Name the recorded %Inh for O=C(NCc1cccs1)c1cc(C(=O)c2c(Cl)cccc2Cl)c[nH]1 .
Result: 0%

Request: Name the recorded %Inh for COc1cccc(-n2cnc3c(N)ncnc32)c1 .
Result: 14%

Request: Name the recorded %Inh for COC(=O)c1c(-c2ccccc2)c2cc(Br)ccc2c(=O)n1Cc1ccc(NC(=O)CCC(=O)O)cc1 .
Result: 24%

Request: Name the recorded %Inh for COC(=O)c1c(-c2ccccc2)c2cc(C)ccc2c(=O)n1Cc1ccccc1 .
Result: 0%

Request: Name the recorded %Inh for Cc1nnc(-c2ccc3ncn(-c4ccc(S(C)=O)cc4)c3c2)o1 (stereo not drawn) .
Result: 1%

Request: Name the recorded %Inh for O=C(NCCNc1ccnc(Nc2ccc(F)cc2)n1)Nc1ccc2c(c1)OCO2 .
Result: 0%

Request: Name the recorded %Inh for Nc1nc(N)c2nc(-c3ccccc3)[nH]c2n1 .
Result: 5%

Request: Name the recorded %Inh for CCc1ccc(-c2ccc3c(c2)-c2nn(C)cc2S(=O)(=O)N3C)cc1 .
Result: 12%

Request: Name the recorded %Inh for Cl.NS(=O)(=O)c1cccc(Nc2cc(-c3ccc(F)cc3)n[nH]2)c1 .
Result: 8%

Request: Name the recorded %Inh for COc1cc2ncn(-c3cc(OCCCc4ccccc4)c(C(N)=O)s3)c2cc1OC .
Result: 0%

Request: Name the recorded %Inh for COc1cc2ncn(-c3cc(OCc4ccc(S(C)(=O)=O)cc4)c(C(N)=O)s3)c2cc1OC .
Result: 0%

Request: Name the recorded %Inh for CN(C)c1cc(-c2ccc3c(N)n[nH]c3c2)nc(N)n1 .
Result: 0%
